Values were extracted from patent EP2565188A1.

- assay-text: Photocleavage study: irradiation at 360 nm, composition by HPLC
- Format: physicochemical
- run-conditions: 1 mM, 5% water in acetonitril, 360 nm; irradiation time 820 min; share of the labelled species
observable: Molar composition of a solution of 2',7-bisNvoc-PTX after irradiation (%)
Quick note: give the figure in %, leave out the unit.

Below, each entry is followed by its recorded Molar composition of a solution of 2',7-bisNvoc-PTX after irradiation result.
COc1cc(COC(=O)O[C@@H](C(=O)O[C@H]2C[C@@]3(O)[C@@H](OC(=O)c4ccccc4)[C@@H]4[C@]5(OC(C)=O)CO[C@@H]5C[C@H](O)[C@@]4(C)C(=O)[C@H](OC(C)=O)C(=C2C)C3(C)C)[C@@H](NC(=O)c2ccccc2)c2ccccc2)c([N+](=O)[O-])cc1OC	38.1
CC(=O)O[C@H]1C(=O)[C@@]2(C)[C@H]([C@H](OC(=O)c3ccccc3)[C@]3(O)C[C@H](OC(=O)[C@H](O)[C@@H](NC(=O)c4ccccc4)c4ccccc4)C(C)=C1C3(C)C)[C@]1(OC(C)=O)CO[C@@H]1C[C@@H]2O	21.2
COc1cc(COC(=O)O[C@H]2C[C@H]3OC[C@@]3(OC(C)=O)[C@H]3[C@H](OC(=O)c4ccccc4)[C@]4(O)C[C@H](OC(=O)[C@H](O)[C@@H](NC(=O)c5ccccc5)c5ccccc5)C(C)=C([C@@H](OC(C)=O)C(=O)[C@]23C)C4(C)C)c([N+](=O)[O-])cc1OC	16.4

The record that follows has no Molar composition of a solution of 2',7-bisNvoc-PTX after irradiation shown yet.
Look up and state reported Molar composition of a solution of 2',7-bisNvoc-PTX after irradiation for COc1cc(COC(=O)O[C@H]2C[C@H]3OC[C@@]3(OC(C)=O)[C@H]3[C@H](OC(=O)c4ccccc4)[C@]4(O)C[C@H](OC(=O)[C@H](OC(=O)OCc5cc(OC)c(OC)cc5[N+](=O)[O-])[C@@H](NC(=O)c5ccccc5)c5ccccc5)C(C)=C([C@@H](OC(C)=O)C(=O)[C@]23C)C4(C)C)c([N+](=O)[O-])cc1OC
24.3

====

Examples of compounds with documented Molar composition of a solution of 2',7-bisNvoc-PTX after irradiation follow.
- assay-text: Photocleavage study: irradiation at 360 nm, composition by HPLC
- Type: physicochemical
- run-conditions: 1 mM, 5% water in acetonitril, 360 nm; irradiation time 735 min; share of the labelled species
Quick note: give the figure in %, leave out the unit.

COc1cc(COC(=O)O[C@H]2C[C@H]3OC[C@@]3(OC(C)=O)[C@H]3[C@H](OC(=O)c4ccccc4)[C@]4(O)C[C@H](OC(=O)[C@H](O)[C@@H](NC(=O)c5ccccc5)c5ccccc5)C(C)=C([C@@H](OC(C)=O)C(=O)[C@]23C)C4(C)C)c([N+](=O)[O-])cc1OC	18.4
COc1cc(COC(=O)O[C@H]2C[C@H]3OC[C@@]3(OC(C)=O)[C@H]3[C@H](OC(=O)c4ccccc4)[C@]4(O)C[C@H](OC(=O)[C@H](OC(=O)OCc5cc(OC)c(OC)cc5[N+](=O)[O-])[C@@H](NC(=O)c5ccccc5)c5ccccc5)C(C)=C([C@@H](OC(C)=O)C(=O)[C@]23C)C4(C)C)c([N+](=O)[O-])cc1OC	27.5
CC(=O)O[C@H]1C(=O)[C@@]2(C)[C@H]([C@H](OC(=O)c3ccccc3)[C@]3(O)C[C@H](OC(=O)[C@H](O)[C@@H](NC(=O)c4ccccc4)c4ccccc4)C(C)=C1C3(C)C)[C@]1(OC(C)=O)CO[C@@H]1C[C@@H]2O	18.5

Look up and state reported Molar composition of a solution of 2',7-bisNvoc-PTX after irradiation for COc1cc(COC(=O)O[C@@H](C(=O)O[C@H]2C[C@@]3(O)[C@@H](OC(=O)c4ccccc4)[C@@H]4[C@]5(OC(C)=O)CO[C@@H]5C[C@H](O)[C@@]4(C)C(=O)[C@H](OC(C)=O)C(=C2C)C3(C)C)[C@@H](NC(=O)c2ccccc2)c2ccccc2)c([N+](=O)[O-])cc1OC
35.6
